# system name: T1, PUF4 RNA-binding domain (Saccharomyces cerevisiae, UniProt P25339 537-888)
# T1 sequence: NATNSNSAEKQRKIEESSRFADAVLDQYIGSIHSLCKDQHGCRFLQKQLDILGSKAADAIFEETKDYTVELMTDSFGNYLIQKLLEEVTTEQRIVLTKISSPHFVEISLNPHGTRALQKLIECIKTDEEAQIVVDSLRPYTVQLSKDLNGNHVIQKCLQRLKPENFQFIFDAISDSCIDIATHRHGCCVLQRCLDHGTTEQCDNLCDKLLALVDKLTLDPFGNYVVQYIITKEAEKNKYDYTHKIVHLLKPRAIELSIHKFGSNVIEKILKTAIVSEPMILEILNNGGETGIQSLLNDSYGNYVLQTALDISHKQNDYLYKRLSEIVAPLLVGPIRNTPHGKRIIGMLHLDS
# test protocol: Mg; RNA-MaP; 20 mM Na-HEPES pH 7.4, 30 mM KOAc, 0.75 mM MgCl2, 0.1% Tween-20, 5% glycerol, 0.1 mg/mL BSA, 2 mM DTT; 25 C; 0.0125-409.6 nM protein
# condition summary: tags: N-His6-TEV cleaved; C-SNAP kept, Cy3B-labelled; label: tethered on chip by stalled RNA polymerase
Param label: returns 1 when Kd < 100 nM, returns -1 otherwise, including exact equality.

Query string: Below 100 nM on Kd? Entry Ic_S2_P3E.1_K3.1_C3.1_H3.1_A3.1_F3.1_[T7G]_[A8T]_T3.1 (ssRNA) RNA: UUUGAUUAAUAUGAUAUCGUUCUUUCUUGUAUAGUUUCUUUCUCGAUAUCAUAUUAAUCUUU
Result string: 1

Query string: Below 100 nM on Kd? Entry UCUCUUUGUGUAUAUAUAUCUCUU (ssRNA) [Id_ii_S1_P3E.2_K3.1_C3.2_[C-2T]_[T-1G]_H3.1_A3.1_F3.1_T3.2]
Result string: 1

Query string: Below 100 nM on Kd? Entry UCUCUUUGUACACUUUCUCUU (ssRNA) [Ic_S1_P4E.1_K4.1_C4.1_H4.1_A4.1_[T5C]_[T7C]_F4.1_[A9T]_T4.1]
Result string: 1

Query string: Below 100 nM on Kd? Entry UCUCUUUCUAUAUAUAGUUCUCUU (ssRNA) [Id_ii_S1_P3E.3_K3.2_C3.2_[C-2T]_[T-1C]_H3.2_A3.1_F3.1_T3.2_[T9G]_[A10T]]
Result string: -1

Query string: Below 100 nM on Kd? Entry Id_ii_S4_P5E.2_K5.1_C5.2_[C-2T]_[T-1G]_H5.1_A5.1_F5.1_T5.2_[T11A]_[A12T] (ssRNA) RNA: UUUGACAACUGAUCGUUCUUUCUUGUGUAUUAUUAAUUUCUUUCUCGAUCAGUUGUCUUU
Result string: 1
